This collection of values is drawn from patent US20260262643A1.

Plant response rating, Corn by entry:
system: corn; assay: Test C postemergence; format: in vivo, Zea mays; conditions: Postemergence, 500 g ai/ha, 10 days, visual 0 to 100 scale (0 no effect, 100 complete control)
Output spec: single numeric token, no unit.

# count of solved cases: 3
INSERT INTO measurements (smiles_data, recorded_measurement) VALUES
  ('Cc1ccc(-n2cnc(C(C)(C)O)n2)cc1C(=O)N1C[C@H](C)Oc2c(C)cccc21', 90),
  ('COc1cc(C(=O)N2C[C@H](C)Oc3c(Cl)cccc32)cc(-n2cnc(C3CCC3)n2)c1', 70),
  ('C[C@H]1CN(C(=O)c2cc(-n3cnc(C4CCC4)n3)cc3c2OCCO3)c2cccc(Cl)c2O1', 20);

Next, consider the following molecule.
Returns the measured Plant response rating, Corn for the input molecule. Input: `COC[C@H]1CN(C(=O)c2cc(-n3cncn3)ccc2C)c2cccc(Cl)c2O1`
90
